system: Pythium ultimum; test: Threshold concentration test for use of the compounds against Pythium ultimum (infested soil, garden peas); format: in vivo; settings: 80 mg/l soil; 20 grains per dish; 3 weeks at 20-24° C.
Readout kind: number of sound peas
Lab note: jot down the number only; don't add units.

Param item = C=CCNC(=O)c1nnc(S(=O)(=O)CCC)s1 ; retrieve measured number of sound peas.
15

Param item = O=C1C2CC=CCC2C(=O)N1SC(Cl)(Cl)Cl (centres unmarked) [reference compound] ; retrieve measured number of sound peas.
8

Param item = CCS(=O)(=O)c1nnc(C(=O)NC)s1 ; retrieve measured number of sound peas.
19

Param item = CCCS(=O)(=O)c1nnc(C(=O)NCC)s1 ; retrieve measured number of sound peas.
14

Param item = CCCCNC(=O)c1nnc(S(=O)(=O)CC)s1 ; retrieve measured number of sound peas.
20

Param item = CC(C)[S+]([O-])c1nnc(C#N)s1 (centres unmarked) ; retrieve measured number of sound peas.
19

Param item = CCCS(=O)(=O)c1nnc(C(=O)N2CCC2)s1 ; retrieve measured number of sound peas.
18

Param item = CC[S+]([O-])c1nnc(C(N)=O)s1 (centres unmarked) ; retrieve measured number of sound peas.
20

Param item = CNC(=O)c1nnc(S(C)(=O)=O)s1 ; retrieve measured number of sound peas.
18

Param item = CCS(=O)(=O)c1nnc(C(=O)N2CCCC2)s1 ; retrieve measured number of sound peas.
20

Param item = CCC[S+]([O-])c1nnc(C#N)s1 (centres unmarked) ; retrieve measured number of sound peas.
18

Param item = C=CCNC(=O)c1nnc([S+](C)[O-])s1 (centres unmarked) ; retrieve measured number of sound peas.
18

Param item = CC[S+]([O-])c1nnc(C#N)s1 (centres unmarked) ; retrieve measured number of sound peas.
19

Param item = CCCS(=O)(=O)c1nnc(C(=O)NCCCCl)s1 ; retrieve measured number of sound peas.
19

Param item = CC(C)S(=O)(=O)c1nnc(C#N)s1 ; retrieve measured number of sound peas.
19

Param item = CCCS(=O)(=O)c1nnc(C(N)=O)s1 ; retrieve measured number of sound peas.
17

Param item = CCNC(=O)c1nnc(S(C)(=O)=O)s1 ; retrieve measured number of sound peas.
15

Param item = CCNC(=O)c1nnc(S(=O)(=O)CC)s1 ; retrieve measured number of sound peas.
16

Param item = S=C([S-])NCCNC(=S)[S-].[Mn+2] [reference compound] ; retrieve measured number of sound peas.
11

Param item = C=CCNC(=O)c1nnc(S(C)(=O)=O)s1 ; retrieve measured number of sound peas.
18

----------
system: Helminthosporium gramineum; assay: Seed treatment in open field tests for infestation by Helminthosporium gramineum (barley); format: in vivo; settings: summer barley; 25 g active agent/100 kg barley; about 3 months
Readout kind: % activity (%)
Just the number please, in %, no unit attached.

Param item = CS(=O)(=O)c1nnc(C(N)=O)s1 ; retrieve measured % activity.
95

Param item = CCS(=O)(=O)c1nnc(C(=O)NC(C)C)s1 ; retrieve measured % activity.
96

Param item = CC(C)S(=O)(=O)c1nnc(C#N)s1 ; retrieve measured % activity.
100

Param item = CCS(=O)(=O)c1nnc(C(=O)NCCCOC)s1 ; retrieve measured % activity.
94

Param item = CCCCN(C)C(=O)c1nnc(S(=O)(=O)CC)s1 ; retrieve measured % activity.
94

Param item = CCS(=O)(=O)c1nnc(C(=O)NCCOC)s1 ; retrieve measured % activity.
92

Param item = CCNC(=O)c1nnc(S(=O)(=O)CC)s1 ; retrieve measured % activity.
98

Param item = CNC(=O)c1nnc(S(C)(=O)=O)s1 ; retrieve measured % activity.
93

Param item = C=CCNC(=O)c1nnc(S(=O)(=O)CC)s1 ; retrieve measured % activity.
97

Param item = CCCNC(=O)c1nnc(S(=O)(=O)CC)s1 ; retrieve measured % activity.
95
